Test system: SNB-78
Experiment: NCI tumour cell line growth inhibition, 48 h
Activity calls are given as the source filed them. No stated cut-off is given here; in the data, active = GI50 up to about 1.1 µM and inactive = higher.
Observed property: GI50

Compound	GI50
COc1cc(C2c3cc4c(cc3[C@@H](Nc3ccc(C#N)cc3)C3COC(=O)[C@H]23)OCO4)cc(OC)c1O (stereo not given in full)	3.03 µM (inactive)
CN(C)C1=NC2=S(SC(Nc3ccccc3)=N2)S1 (stereo not given)	34.4 µM (inactive)
O=[N+]([O-])c1cccc(-c2oc(/C=N/c3ccccc3)c([N+](=O)[O-])c2-c2cccc([N+](=O)[O-])c2)c1	> 100 µM (inactive)
O=[N+]([O-])c1cccc(/C=N\NS(=O)(=O)c2ccc(Cl)cc2)c1O	> 100 µM (inactive)
COc1ccc(/C=C/C(=N\NC(=O)c2ccccc2)c2sc(Nc3ccc([N+](=O)[O-])cc3)nc2C)cc1OC	8.55 µM (inactive)
CCCCCCCCCCCC(=O)OC[C@H](C[As](=O)(O)O)OC(=O)CCCCCCCCCCC	2.94 µM (inactive)
COc1ccc(C2Oc3cc(OC)c(O)cc3[C@@H]2C)cc1 (stereo not given in full)	> 100 µM (inactive)
COc1ccc(/C=C/COC(C)=O)cc1OC	> 100 µM (inactive)
O=P1(O)c2ccccc2Nc2cc(C(F)(F)F)ccc21	> 100 µM (inactive)

SNB-78 / GI50 / `CSc1cccc(-n2c3nc(=O)n(C)c(=O)c-3nc3ccccc32)c1` : value? 19.4 µM (inactive)

###

System: SN12C
Experiment: NCI tumour cell line growth inhibition, 48 h
Calls of active or inactive are those of the source. Rule as the data show it: active = GI50 up to about 1.1 µM and inactive = higher.
Choose the fitting class; nothing outside active, inactive is accepted.

Example cases with answers are listed next.
Molecule	Experimental target	Assigned category
O=S(=O)(N=S(c1ccc(Cl)cc1)c1ccc(Cl)cc1)c1ccccc1	SN12C	inactive
CCOCc1c(C)cc(C)c(C2C(C(=O)c3ccccc3)N3c4ccccc4C=CC3C2(C#N)C(=O)OCC)c1C (stereo unspecified)	SN12C	inactive
O=c1n(-c2ccccc2)c(=O)n2n1C1C=CC2CCCCCC1	SN12C	inactive
Clc1ccc2c(Cl)nc(-c3ccccc3)nc2c1	SN12C	inactive

Now examine the next entry.
Which outcome was entered for the molecule `N#CCCN(c1ccc(/C=C2\N=C(Cc3ccccc3)OC2=O)cc1)S(=O)(=O)c1ccccc1` in this test? inactive

###

System: SW-620
Experiment: NCI tumour cell line growth inhibition, 48 h
The source made the active and inactive calls. No stated cut-off is given here; in the data, active = GI50 up to about 1.1 µM and inactive = higher.
As shown below, each of these molecules has a reported GI50 value.

Here is how some molecules turned out for GI50.
Molecule	GI50
COc1ccc(Br)c(C(=O)N2CCc3ccccc32)c1N	49.1 µM (inactive)
COc1ccc2c3ccc4c(c3n(C)c2c1)C(=O)C=CC4=O	16.4 µM (inactive)
COc1ccc(N2C(=O)C3c4[nH]c5ccccc5c4C4CCC(C(C)(C)C)CC4C3C2=O)c(C)c1 (configuration not stated)	> 100 µM (inactive)

Dear colleague, I am looking for the recorded GI50 of the following molecule: `COc1ccc(/C=N/NC(=O)c2ccc(O)c(CN(C)C)c2)cc1` > 100 µM (inactive)

Dear colleague, I am looking for the recorded GI50 of the following molecule: `COc1ccc2c(c1)CCc1c(C(C)=O)c3ccccc3n1C2` > 100 µM (inactive)

Dear colleague, I am looking for the recorded GI50 of the following molecule: `NNC(=O)CCC(=O)Nc1ccc(Cl)cc1Cl` > 100 µM (inactive)

Dear colleague, I am looking for the recorded GI50 of the following molecule: C1CC[C@H]2SSC3CCCC[C@H]3SSC2C1 (some centres not stated) > 100 µM (inactive)
